# systemTested: T1, biotinylated human BCMA-Fc, Avitag recombinant protein (ACRO Biosystems, #BC7-H82F0) (human, UniProt Q02223 1-54, biotinylated)
# T1 construct: extracellular domain; Bought protein; also called human BCMA protein; recombinant human BCMA-ECD-Fc; not shown: Fc of the bought fusion protein; Avitag
# T1 sequence (looked up): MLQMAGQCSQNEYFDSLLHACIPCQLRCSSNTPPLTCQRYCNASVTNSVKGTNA
# assayComment: BLI, dissociation rate relative to the original molecule PR001046 VH
List of Kdis fold values.
endpointName: Kdis fold

INSERT INTO assay_data (binder, endpointname, measvalue) VALUES
  ('PR004572, PR001046 VH-derived single-domain variant 1046-R2-7E7 (VHH, Tested as VH single domain with Flag and His tags; also called PR001046-R2-7E7; not shown: Flag and His tags) VHH: EVQLVETGGGLIQPGGSLRLSCAASGFTVSDSYMTWVRQAPGKGLEWVSVIFSGGKTYVADSVKGRFTISRDNAKNTLYLQMNSLRAEDTALYYCARRNYDDTRGTDVFDIWGQGTMVTVSS', 'Kdis fold', 0.34),
  ('PR001046 VH single-domain molecule (original molecule) (VHH, not the HCAb form; not shown: Flag and His tags) VHH: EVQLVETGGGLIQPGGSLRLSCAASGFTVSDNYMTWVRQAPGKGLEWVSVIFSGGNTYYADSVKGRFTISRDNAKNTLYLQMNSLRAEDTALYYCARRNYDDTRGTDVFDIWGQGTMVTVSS', 'Kdis fold', 1),
  ('PR004568, PR001046 VH-derived single-domain variant 1046-R2-5H1 (VHH, Tested as VH single domain with Flag and His tags; not shown: Flag and His tags) VHH: EVQLVETGGGLIQPGGSLRLSCAASGFTVSDAYMTWVRQAPGKGLEWVSVIFSGGRTYVADSVKGRFTISRDNAKNTLYLQMNSLRAEDTALYYCARRNYDDTRGTDVFDIWGQGTMVTVSS', 'Kdis fold', 0.33),
  ('PR004566, PR001046 VH-derived single-domain variant 1046-R2-4G10 (VHH, Tested as VH single domain with Flag and His tags; not shown: Flag and His tags) VHH: EVQLVETGGGLIQPGGSLRLSCAASGFTVSDSYMTWVRQAPGKGLEWVSVIFSGGRTYYSDSVKGRFTISRDNAKNTLYLQMNSLRAEDTALYYCARRNYDDTRGTDVFDIWGQGTMVTVSS', 'Kdis fold', 0.41),
  ('PR004574, PR001046 VH-derived single-domain variant 1046-R2-9E5 (VHH, Tested as VH single domain with Flag and His tags; not shown: Flag and His tags) VHH: EVQLVETGGGLIQPGGSLRLSCAASGFTVSDAYMTWVRQAPGKGLEWVSVIFSGGRTYYSDSVKGRFTISRDNAKNTLYLQMNSLRAEDTALYYCARRNYDQTRGTDVFDIWGQGTMVTVSS', 'Kdis fold', 0.45),
  ('PR004569, PR001046 VH-derived single-domain variant 1046-R2-5H2 (VHH, Tested as VH single domain with Flag and His tags; not shown: Flag and His tags) VHH: EVQLVETGGGLIQPGGSLRLSCAASGFTVSDSYMTWVRQAPGKGLEWVSVIFSGGRTYYSDSVKGRFTISRDNAKNTLYLQMNSLRAEDTALYYCARRNYDQTRGTDVFDIWGQGTMVTVSS', 'Kdis fold', 0.36),
  ('PR004571, PR001046 VH-derived single-domain variant 1046-R2-6F1 (VHH, Tested as VH single domain with Flag and His tags; not shown: Flag and His tags) VHH: EVQLVETGGGLIQPGGSLRLSCAASGFTVSDSYMTWVRQAPGKGLEWVSVIFSGGKTYYSDSVKGRFTISRDNAKNTLYLQMNSLRAEDTALYYCARRNYDQTIGTDVFDIWGQGTMVTVSS', 'Kdis fold', 0.31),
  ('PR004573, PR001046 VH-derived single-domain variant 1046-R2-8B1 (VHH, Tested as VH single domain with Flag and His tags; not shown: Flag and His tags) VHH: EVQLVETGGGLIQPGGSLRLSCAASGFTVSDSYMTWVRQAPGKGLEWVSVIFSGGKTYYADSVKGRFTISRDNAKNTLYLQMNSLRAEDTALYYCARRNYDDTRGTDVFDIWGQGTMVTVSS', 'Kdis fold', 0.41);
